# test summary: AUC (0 to t) in nude mouse xenografted with human U-87 MG cells at 75 mg/kg, po administered once daily for 3 weeks
# Assay type: ADME, organism-based
# Set-up: time 3 weeks, dose 75 mg/kg
# reported conditions: in vivo
test readout: AUC(0-t) at 504 h (µg·h/mL)
Please state the figure in µg·h/mL; there is no need to write the unit.

INPUT: Could you share which AUC(0-t) at 504 h value was measured for `COc1cc2ncnc(Oc3ccc(Nc4nccc5[nH]cc(-c6ccc(F)cc6)c(=O)c45)cc3)c2cc1OC` ?
OUTPUT: 279

====

# test summary: Cmax in nude mouse xenografted with human U-87 MG cells at 25 mg/kg, po administered once daily for 3 weeks
# Type: ADME, organism-based
# Design: route oral, dose 25 mg/kg, time 3 weeks
# reported conditions: in vivo
test readout: Cmax (ng/mL)
Please state the figure in ng/mL; there is no need to write the unit.

INPUT: Could you share which Cmax value was measured for `COc1cc2ncnc(Oc3ccc(Nc4nccc5[nH]cc(-c6ccc(F)cc6)c(=O)c45)cc3)c2cc1OC` ?
OUTPUT: 12100
